Data origin: patent US4426519A

Please respond with reported MIC for every item in the list.
test system: Staphylococcus aureus UC 1 128 Pen-resistant; test: MIC, dilution in liquid medium; type: cell-based; conditions: UC1, 24 h
Write the quantity with the unit trailing the number.

>  <compound>
CC(=O)OCC1=C(C(=O)O)N2C(=O)C(NC(=O)/C(=N\OCCSC(=N)NN)c3csc(N)n3)C2SC1 (stereo not drawn) [Example 8]

>  <assay_metric>
MIC

>  <reported_measurement>
2 µg/mL

$$$$
>  <compound>
Cn1nnnc1SCC1=C(C(=O)O)N2C(=O)C(NC(=O)/C(=N\OCCSC(=N)N)c3csc(N)n3)C2SC1 (stereo not drawn) [Example 4]

>  <assay_metric>
MIC

>  <reported_measurement>
2 µg/mL

$$$$
>  <compound>
CC(=O)OCC1=C(C(=O)O)N2C(=O)C(NC(=O)/C(=N\OCCSC(=N)N)c3csc(N)n3)C2SC1 (stereo not drawn) [Example 1]

>  <assay_metric>
MIC

>  <reported_measurement>
2 µg/mL

$$$$

List MIC for every entry below, keeping the order given.
1. CC(=O)OCC1=C(C(=O)O)N2C(=O)C(NC(=O)/C(=N\OC(F)F)c3csc(N)n3)C2SC1 (stereo not drawn) [Example 9]
2. CC(=O)OCC1=C(C(=O)O)N2C(=O)C(NC(=O)/C(=N\OCCSC#N)c3csc(N)n3)C2SC1 (stereo not drawn) [Example 7]
3. Cc1nnc(SCC2=C(C(=O)O)N3C(=O)C(NC(=O)/C(=N\OCCSC(=N)N)c4csc(N)n4)C3SC2)s1 (stereo not drawn) [Example 6]

RESULT:
1: 1 µg/mL; 2: 1 µg/mL; 3: 2 µg/mL

* * *

test system: Staphylococcus aureus UC 1 128 Pen-resistant; experiment: MIC, dilution in liquid medium; format: cell-based; settings: UC1, 48 h
assay_metric: MIC (µg/mL)
Give bare numbers, in µg/mL.

Below, each entry is followed by its recorded MIC result.
>  <compound>
CC(=O)OCC1=C(C(=O)O)N2C(=O)C(NC(=O)/C(=N\OCCSC(=N)N)c3csc(N)n3)C2SC1 (stereo not drawn) [Example 1]

>  <assay_metric>
MIC

>  <unit>
µg/mL

>  <reported_measurement>
3

$$$$
>  <compound>
CC(=O)OCC1=C(C(=O)O)N2C(=O)C(NC(=O)/C(=N\OCCSC#N)c3csc(N)n3)C2SC1 (stereo not drawn) [Example 7]

>  <assay_metric>
MIC

>  <unit>
µg/mL

>  <reported_measurement>
1

$$$$
>  <compound>
Cc1nnc(SCC2=C(C(=O)O)N3C(=O)C(NC(=O)/C(=N\OCCSC(=N)N)c4csc(N)n4)C3SC2)s1 (stereo not drawn) [Example 6]

>  <assay_metric>
MIC

>  <unit>
µg/mL

>  <reported_measurement>
2

$$$$

Batch request: MIC for each of the following compounds.
1. CC(=O)OCC1=C(C(=O)O)N2C(=O)C(NC(=O)/C(=N\OC(F)F)c3csc(N)n3)C2SC1 (stereo not drawn) [Example 9]
2. CC(=O)OCC1=C(C(=O)O)N2C(=O)C(NC(=O)/C(=N\OCCSC(=N)NN)c3csc(N)n3)C2SC1 (stereo not drawn) [Example 8]
3. Cn1nnnc1SCC1=C(C(=O)O)N2C(=O)C(NC(=O)/C(=N\OCCSC(=N)N)c3csc(N)n3)C2SC1 (stereo not drawn) [Example 4]

RESULT:
1. 2
2. 2
3. 2

* * *

tested on: Escherichia Coli sensitive Tetracycline ATCC 9 637; test: MIC, dilution in liquid medium; format: cell-based; settings: ATCC9, 24 h
assay_metric: MIC (µg/mL)
Numbers only, in µg/mL.

Recorded MIC, per entry:
>  <compound>
Cn1nnnc1SCC1=C(C(=O)O)N2C(=O)C(NC(=O)/C(=N\OCCSC(=N)N)c3csc(N)n3)C2SC1 (stereo not shown)

>  <unit>
µg/mL

>  <reported_measurement>
2

$$$$
>  <compound>
CC(=O)OCC1=C(C(=O)O)N2C(=O)C(NC(=O)/C(=N\OCCSC(=N)NN)c3csc(N)n3)C2SC1 (stereo not shown)

>  <unit>
µg/mL

>  <reported_measurement>
2

$$$$
>  <compound>
CC(=O)OCC1=C(C(=O)O)N2C(=O)C(NC(=O)/C(=N\OCCSC(=N)N)c3csc(N)n3)C2SC1 (stereo not shown)

>  <unit>
µg/mL

>  <reported_measurement>
1

$$$$

Continue with the compound presented below.
QUERY: Lab request: please report MIC under test system Escherichia Coli sensitive Tetracycline ATCC 9 637 for CC(=O)OCC1=C(C(=O)O)N2C(=O)C(NC(=O)/C(=N\OCCSC#N)c3csc(N)n3)C2SC1 (stereo not shown)
RESULT: 5

* * *

test system: Escherichia Coli Exp. TO26 B6; experiment: MIC, dilution in liquid medium; type: cell-based; conditions: 24 h
assay_metric: MIC (µg/mL)
One number for each entry, in µg/mL.

Please review the entries below; each comes with its answer.
>  <compound>
CC(=O)OCC1=C(C(=O)O)N2C(=O)C(NC(=O)/C(=N\OCCSC(=N)NN)c3csc(N)n3)C2SC1 (centres unmarked)

>  <MIC, µg/mL>
1

$$$$
>  <compound>
CC(=O)OCC1=C(C(=O)O)N2C(=O)C(NC(=O)/C(=N\OCCSC#N)c3csc(N)n3)C2SC1 (centres unmarked)

>  <MIC, µg/mL>
2

$$$$
>  <compound>
[N-]=[N+]=NCC1=C(C(=O)O)N2C(=O)C(NC(=O)/C(=N\OCCSC(=N)N)c3csc(N)n3)C2SC1 (centres unmarked)

>  <MIC, µg/mL>
0.5

$$$$
>  <compound>
Cn1nnnc1SCC1=C(C(=O)O)N2C(=O)C(NC(=O)/C(=N\OCCSC(=N)N)c3csc(N)n3)C2SC1 (centres unmarked)

>  <MIC, µg/mL>
1

$$$$

Now examine the next entry.
QUERY: Find the recorded MIC belonging to Cc1nnc(SCC2=C(C(=O)O)N3C(=O)C(NC(=O)/C(=N\OCCSC(=N)N)c4csc(N)n4)C3SC2)s1 (centres unmarked) and report it.
RESULT: 2
